target-of-assay: TPαR (Homo sapiens, UniProt P21731)
Construct: host or cells: HEK293
test-method-notes: Polycistronic vector biosensor (GRK2-GFP, Rluc-Gγ5, Gβ1) co-transfected with TPαR and Gα11
Assay type: cell-based
experimental-conditions: FIG. 11C

- molecule-smiles: "CCCCC[C@H](O)/C=C/[C@@H]1[C@@H](C/C=C\\CCCC(=O)O)[C@H]2CO[C@@H]1C2"
  target-of-assay: "TPαR (Homo sapiens, UniProt P21731)"
  EC50, nM: 4.3

* * *

target-of-assay: TPαR (Homo sapiens, UniProt P21731)
Construct: host or cells: HEK293
Sequence (P21731 1-343): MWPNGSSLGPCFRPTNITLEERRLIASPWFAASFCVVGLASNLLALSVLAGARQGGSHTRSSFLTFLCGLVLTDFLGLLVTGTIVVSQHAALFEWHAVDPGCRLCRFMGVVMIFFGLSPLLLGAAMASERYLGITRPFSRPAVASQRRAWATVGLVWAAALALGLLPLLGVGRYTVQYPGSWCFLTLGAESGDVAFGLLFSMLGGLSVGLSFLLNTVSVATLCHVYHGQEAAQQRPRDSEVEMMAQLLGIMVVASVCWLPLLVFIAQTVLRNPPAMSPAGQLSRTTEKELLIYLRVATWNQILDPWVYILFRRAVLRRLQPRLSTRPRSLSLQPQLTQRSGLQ
test-method-notes: Rluc protein complementation assay (GRK2-Rluc F1/Rluc F2-Gγ5/Gβ1/Gα11), TPαR in HEK293 cells
Assay type: cell-based
experimental-conditions: Rluc-PCA, FIG. 9B, read-out: EC50 of G11 protein activation (luminescence)
pEC50: −log10 of the molar value.

- molecule-smiles: "CCCCC[C@H](O)/C=C/[C@@H]1[C@@H](C/C=C\\CCCC(=O)O)[C@H]2CO[C@@H]1C2"
  pEC50: 8.08

* * *

target-of-assay: thromboxane A2 receptor (TPαR) (Homo sapiens, UniProt P21731)
Construct: host or cells: HEK293
test-method-notes: βγIP-based BRET biosensor (GRK2-GFP/Rluc-Gγ5/Gβ1 plus indicated Gα), agonist activation of TPαR in HEK293 cells
Assay type: cell-based
experimental-conditions: Gα15/16, FIG. 3C, read-out: potency of G-protein activation (dose-response curve)

- molecule-smiles: "CCCCC[C@H](O)/C=C/[C@@H]1[C@@H](C/C=C\\CCCC(=O)O)[C@H]2CO[C@@H]1C2"
  EC50: "6.6 nM"
